Experimental Details: Growth inhibition of mouse CPC300 cells after 72 hrs by CellTiter-Glo reagent based assay
Assay type: functional, cell-based
Assay Setup: Mus musculus, CPC300, 72 h; read-out: EC50
Measure: EC50
Answer format reminder: number followed by unit.

Query: Form field: reported EC50 of CC1=C(CC(=O)NCCCN(C)C)c2cc(F)ccc2/C1=C\c1nc2ccccc2s1
Reply: 65 µM

Query: Could you do the same for CSc1ccc(/C=C2/C(C)=C(CC(=O)N3CCN(c4ccncc4)CC3)c3cc(F)ccc32)cc1 , please?
Reply: 50 µM

Query: And the next one, CSc1ccc(/C=C2/C(C)=C(CC(=O)N3CCN(CCN(C)C)CC3)c3cc(F)ccc32)cc1 ?
Reply: 27 µM

Query: Now consider CC1=C(CC(=O)N2CCN(c3ccncc3)CC2)c2cc(F)ccc2/C1=C\c1nc2ccccc2s1 .
Reply: 72 µM

Query: Now consider CC1=C(CC(=O)NCc2ccccc2)c2cc(F)ccc2/C1=C\c1ccc([S+](C)[O-])cc1 (stereo not given) .
Reply: 120 µM

----------
System: MDA-MB-231
Experimental Details: Growth inhibition of human MDA-MB-231 cells after 72 hrs by CellTiter-Glo reagent based assay
Format: functional
Assay Setup: MDA-MB-231, 72 h
Threshold 10 µM. CC50 below it: rule met. CC50 at it or above: rule not met.

Query: Does this molecule meet the criterion CC50 < 10 µM? CCNCCN(CC)C(=O)CC1=C(C)/C(=C/c2ccc(SC)cc2)c2ccc(F)cc21
Reply: rule met

Query: Entry to check: CC1=C(CC(=O)N(C)CCN(C)S(C)(=O)=O)c2cc(F)ccc2/C1=C\c1ccc([S+](C)[O-])cc1 (stereo not drawn)
Reply: rule not met

Query: // same read-out, input: CCN(CC)CCN(CC)C(=O)CC1=C(C)/C(=C/c2ccc(SC)cc2)c2ccc(F)cc21
Reply: rule met

Query: Further, for CCN(CC)CCCNC(=O)CC1=C(C)/C(=C/c2ccc(SC)cc2)c2ccc(F)cc21 ?
Reply: rule met

Query: Moving on to COc1cc(/C=C2/C(C)=C(CC(=O)N(C)CCN(C)C(=O)[C@@H](N)C(C)C)c3cc(F)ccc32)cc(OC)c1OC
Reply: rule not met

Query: Now this one: CSc1ccc(/C=C2/C(C)=C(CC(=O)N3CCN(C)CC3)c3cc(F)ccc32)cc1
Reply: rule not met

Query: Also check COC(=O)[C@@H](C)NC(=O)CC1=C(C)/C(=C/c2ccc(SC)cc2)c2ccc(F)cc21
Reply: rule not met

Query: Lookup CSc1ccc(/C=C2/C(C)=C(CC(=O)N3CCC(N4CCCCC4)CC3)c3cc(F)ccc32)cc1
Reply: rule met

Query: Ok, now CC1=C(CC(=O)NCCN2CCCC2)c2cc(F)ccc2/C1=C\c1ccncc1
Reply: rule met

Query: Do the same for CSc1ccc(/C=C2/C(C)=C(CC(=O)N3CCN(CCN(C)C)CC3)c3cc(F)ccc32)cc1 please
Reply: rule met

Query: Next molecule up: CSc1ccc(/C=C2/C(C)=C(CC(=O)NCCC(C)C)c3cc(F)ccc32)cc1
Reply: rule not met

Query: Another molecule: CCN(CC)CCCNC(=O)CC1=C(C)/C(=C/c2ccc([S+](C)[O-])cc2)c2ccc(F)cc21 (stereo not drawn)
Reply: rule not met

Query: Could you do the same for CC1=C(CC(=O)N2CCC[C@H]2CN2CCCC2)c2cc(F)ccc2/C1=C\c1ccc([S+](C)[O-])cc1 (stereo partly drawn) , please?
Reply: rule not met

Query: Subsequent entry: CCS(=O)(=O)N(C)CCN(C)C(=O)CC1=C(C)/C(=C/c2ccc([S+](C)[O-])cc2)c2ccc(F)cc21 (stereo not drawn)
Reply: rule not met

Query: Next: CSc1ccc(/C=C2/C(C)=C(CC(=O)N(C)CCN(C)S(=O)(=O)c3cccc4ccccc34)c3cc(F)ccc32)cc1
Reply: rule not met

Query: Proceed to CSc1ccc(/C=C2/C(C)=C(CC(=O)N3CCCN(C)CC3)c3cc(F)ccc32)cc1
Reply: rule met

Query: Can you handle CSc1ccc(/C=C2/C(C)=C(CC(=O)NCc3ccc(N(C)C)cc3)c3cc(F)ccc32)cc1 next?
Reply: rule not met

Query: What would you report for COc1cc(/C=C2/C(C)=C(CC(=O)NCCN3CCCCC3)c3cc(F)ccc32)cc(OC)c1OC ?
Reply: rule not met

----------
Tested on: MDA-MB-231
Experimental Details: Growth inhibition of human MDA-MB-231 cells after 72 hrs by CellTiter-Glo reagent based assay
Assay type: functional
Assay Setup: MDA-MB-231, 72 h
Measure: CC50

Query: # get_value(readout='CC50', item= COC(=O)[C@H](Cc1cnc[nH]1)NC(=O)CC1=C(C)/C(=C/c2ccc(SC)cc2)c2ccc(F)cc21 )
Reply: > 50 µM

Query: And then CSc1ccc(/C=C2/C(C)=C(CC(=O)N(C)CCN(C)S(=O)(=O)c3ccccc3)c3cc(F)ccc32)cc1 , what is it?
Reply: > 50 µM

Query: // next record CC1=C(CC(=O)N(CCCNC(C)C)C(C)C)c2cc(F)ccc2/C1=C\c1ccc([S+](C)[O-])cc1 (stereo not drawn)
Reply: > 50 µM

----------
Test system: MDA-MB-231
Experimental Details: Growth inhibition of human MDA-MB-231 cells after 72 hrs by CellTiter-Glo reagent based assay
Type: functional
Assay Setup: MDA-MB-231, 72 h
Measure: CC50

Query: Given CC1=C(CC(=O)N(C)CCN(C)C(=O)[C@@H](N)C(C)C)c2cc(F)ccc2/C1=C\c1ccc([S+](C)[O-])cc1 (stereo partly drawn) , state its recorded CC50.
Reply: > 50 µM

Query: # repeat for CCN(CC)CCN(CC)C(=O)CC1=C(C)/C(=C/c2ccc([S+](C)[O-])cc2)c2ccc(F)cc21 (stereo not drawn)
Reply: > 50 µM

Query: Entry CCN(CC)CCN(C)C(=O)CC1=C(C)/C(=C/c2ccc([S+](C)[O-])cc2)c2ccc(F)cc21 (stereo not drawn) please
Reply: > 50 µM

----------
System: MDA-MB-231
Experimental Details: Growth inhibition of human MDA-MB-231 cells after 72 hrs by CellTiter-Glo reagent based assay
Type: functional
Assay Setup: MDA-MB-231, 72 h
Exercise: for every item that follows, state its recorded CC50.

Query: Short answer please: CC50, MDA-MB-231, entry CCN(CC)CCNC(=O)CC1=C(C)/C(=C/c2ccc([S+](C)[O-])cc2)c2ccc(F)cc21 (stereo not given)
Reply: > 50 µM

Query: How about this compound: CNCCCN(C)C(=O)CC1=C(C)/C(=C/c2ccc([S+](C)[O-])cc2)c2ccc(F)cc21 (stereo not given)
Reply: > 50 µM

Query: Do the same for CCNCCCN(CC)C(=O)CC1=C(C)/C(=C/c2ccc([S+](C)[O-])cc2)c2ccc(F)cc21 (stereo not given) please
Reply: > 50 µM

Query: What would you report for CC1=C(CC(=O)NCCCN(C)C)c2cc(F)ccc2/C1=C\c1ccc([S+](C)[O-])cc1 (stereo not given) ?
Reply: > 50 µM

Query: Now the compound CCNCCN(CC)C(=O)CC1=C(C)/C(=C/c2ccc([S+](C)[O-])cc2)c2ccc(F)cc21 (stereo not given)
Reply: > 50 µM

Query: Now the same for CCN1CCC[C@H]1CNC(=O)CC1=C(C)/C(=C/c2ccc(SC)cc2)c2ccc(F)cc21
Reply: 3.72 µM

Query: Subsequent entry: CC1=C(CC(=O)NCCN(C)C)c2cc(F)ccc2/C1=C\c1ccc(S(C)(=O)=O)cc1
Reply: 37.5 µM

Query: One more compound: CC1=C(CC(=O)N(C)CCN(C)C)c2cc(F)ccc2/C1=C\c1nc2ccccc2s1
Reply: 3.8 µM

Query: Now consider CSc1ccc(/C=C2/C(C)=C(CC(=O)N(C)CCCN(C)C)c3cc(F)ccc32)cc1 and answer again.
Reply: 5.41 µM

Query: What about this compound? CSc1ccc(/C=C2/C(C)=C(CC(=O)NCc3cccnc3)c3cc(F)ccc32)cc1
Reply: 7.36 µM

Query: Entry to check: CCS(=O)(=O)N(C)CCN(C)C(=O)CC1=C(C)/C(=C/c2ccc(SC)cc2)c2ccc(F)cc21
Reply: 10.1 µM

Query: Proceed to CSc1ccc(/C=C2/C(C)=C(CC(=O)N(CCCNC(C)C)C(C)C)c3cc(F)ccc32)cc1
Reply: 3.92 µM

Query: Now this one: CC1=C(CC(=O)N(C)CCN(C)S(=O)(=O)c2cccc3c(N(C)C)cccc23)c2cc(F)ccc2/C1=C\c1ccc([S+](C)[O-])cc1 (stereo not given)
Reply: > 50 µM

Query: Next entry: CSc1ccc(/C=C2/C(C)=C(CC(=O)NCc3ccccc3)c3cc(F)ccc32)cc1
Reply: 3.61 µM

Query: Also, CCN1CCC[C@H]1CNC(=O)CC1=C(C)/C(=C/c2ccc([S+](C)[O-])cc2)c2ccc(F)cc21 (stereo not given in full) please.
Reply: > 50 µM

Query: // next record CSc1ccc(/C=C2/C(C)=C(CC(=O)NCCN3CCCCC3)c3cc(F)ccc32)cc1
Reply: 5.42 µM

Query: Here is the next compound: CC1=C(CC(=O)N2CCC(N3CCCCC3)CC2)c2cc(F)ccc2/C1=C\c1ccc([S+](C)[O-])cc1 (stereo not given)
Reply: > 50 µM

Query: Could you do the same for COc1cc(/C=C2/C(C)=C(CC(=O)NCCC(C)C)c3cc(F)ccc32)cc(OC)c1OC , please?
Reply: 8.73 µM

Query: Another compound to look at: CSc1ccc(/C=C2/C(C)=C(CC(=O)NCc3ccncc3)c3cc(F)ccc32)cc1
Reply: 6.46 µM

Query: Field entry: CC1=C(CC(=O)N(C)CCN(C)S(=O)(=O)c2ccc3ccccc3c2)c2cc(F)ccc2/C1=C\c1ccc([S+](C)[O-])cc1 (stereo not given)
Reply: 32.1 µM

Query: Okay, and CC1=C(CC(=O)N2CCC[C@H]2CN2CCCC2)c2cc(F)ccc2/C1=C\c1nc2ccccc2s1 ?
Reply: 3.61 µM

Query: What about CSc1ccc(/C=C2/C(C)=C(CC(=O)NCCN3CCNCC3)c3cc(F)ccc32)cc1 ?
Reply: 7.66 µM

Query: Repeat for the following compound: CSc1ccc(/C=C2/C(C)=C(CC(=O)N(C)CCN(C)S(=O)(=O)c3ccc(C)cc3)c3cc(F)ccc32)cc1
Reply: > 50 µM

Query: Moving on to CSc1ccc(/C=C2/C(C)=C(CC(=O)NCCN(C)C)c3cc(F)ccc32)cc1
Reply: 2.67 µM

Query: Can you check COc1cc(/C=C2/C(C)=C(CC(=O)NCCN3CCCC3)c3cc(F)ccc32)cc(OC)c1OC next?
Reply: 41.1 µM
